System: Convolvulus arvensis
Assay: Test on herbicidal activity by foliar application
Assay type: in vivo
Conditions: foliar spray, 1 kg/ha, plants at 1-2 leaf stage in pots, evaluated 14 days after spraying
reported_endpoint: Herbicidal activity, Convolvulus arvensis

>>> observed("COc1ccc(C(=O)NS(=O)(=O)c2ccccc2OC(F)(F)F)nc1 [Compound I-774]")
"4 (70% or more-90% inhibition)"
>>> observed("COc1cc(Cl)nc(C(=O)NS(=O)(=O)c2ccccc2S(=O)(=O)N(C)OC)c1 [Compound I-838]")
"5 (90% or more inhibition)"
>>> observed("CN(C)S(=O)(=O)c1ccccc1S(=O)(=O)NC(=O)c1cccc(Cl)n1 [Compound I-861]")
"5 (90% or more inhibition)"
>>> observed("COc1ccc(C(=O)NS(=O)(=O)c2ccccc2OC(F)(F)F)nc1OC [Compound I-799]")
"3 (50% or more-70% inhibition)"
>>> observed("COc1ccc(C(=O)NS(=O)(=O)c2c(Cl)cccc2Cl)nc1Cl [Compound I-618]")
"3 (50% or more-70% inhibition)"

* * *

System: Setaria viridis
Assay: Test on herbicidal activity by foliar application
Assay type: in vivo
Conditions: foliar spray, 1 kg/ha, plants at 1-2 leaf stage in pots, evaluated 14 days after spraying
Below is a list of entries, each paired with its recorded Herbicidal activity, Setaria viridis value.
reported_endpoint: Herbicidal activity, Setaria viridis

>>> observed("COc1ccc(C(=O)NS(=O)(=O)c2ccccc2S(=O)(=O)N(C)OC)nc1Br")
"4 (70% or more-90% inhibition)"
>>> observed("COc1ccc(C(=O)NS(=O)(=O)c2ccccc2OC(F)(F)F)nc1")
"5 (90% or more inhibition)"
>>> observed("O=C(NS(=O)(=O)c1ccccc1OC(F)(F)F)c1cccc(Cl)n1")
"1 (less than 30% inhibition)"
>>> observed("O=C(NS(=O)(=O)c1c(Cl)cccc1Cl)c1cccc(Cl)n1")
"1 (less than 30% inhibition)"
>>> observed("COc1ccc(C(=O)NS(=O)(=O)c2ccccc2OC(F)(F)F)nc1[N+](=O)[O-]")
"3 (50% or more-70% inhibition)"
>>> observed("COC(=O)c1ccccc1S(=O)(=O)NC(=O)c1cc(OC)cc(C)n1")
"4 (70% or more-90% inhibition)"
>>> observed("COc1cc(Cl)nc(C(=O)NS(=O)(=O)c2ccccc2OC(F)(F)F)c1")
"2 (30% or more-50% inhibition)"
>>> observed("COC(=O)c1ccccc1S(=O)(=O)NC(=O)c1cc(OC)cc(Cl)n1")
"4 (70% or more-90% inhibition)"
>>> observed("COc1cc(Cl)cc(C(=O)NS(=O)(=O)c2c(Cl)cccc2Cl)n1")
"4 (70% or more-90% inhibition)"

* * *

Tested on: Abutilon theophrasti
Assay: Test on herbicidal activity by foliar application
Format: in vivo
Settings: foliar spray, 1 kg/ha, plants at 1-2 leaf stage in pots, evaluated 14 days after spraying
reported_endpoint: Herbicidal activity, Abutilon theophrasti

>>> observed("COC(=O)c1ccccc1S(=O)(=O)NC(=O)c1ccc(OC)cn1")
"5 (90% or more inhibition)"
>>> observed("COc1ccc(C(=O)NS(=O)(=O)c2ccccc2S(=O)(=O)N(C)C)nc1Br")
"5 (90% or more inhibition)"
>>> observed("COc1ccc(C(=O)NS(=O)(=O)c2ccccc2OC(F)(F)F)nc1Cl")
"5 (90% or more inhibition)"
>>> observed("COc1ccc(C(=O)NS(=O)(=O)c2ccccc2S(=O)(=O)N(C)C)nc1Cl")
"5 (90% or more inhibition)"
>>> observed("CN(C)S(=O)(=O)c1ccccc1S(=O)(=O)NC(=O)c1cccc(Cl)n1")
"5 (90% or more inhibition)"
>>> observed("COc1cc(Cl)cc(C(=O)NS(=O)(=O)c2c(Cl)cccc2Cl)n1")
"4 (70% or more-90% inhibition)"
>>> observed("COc1ccc(C(=O)NS(=O)(=O)c2ccccc2OC(F)(F)F)nc1[N+](=O)[O-]")
"5 (90% or more inhibition)"
>>> observed("COC(=O)c1ccccc1S(=O)(=O)NC(=O)c1cc(Cl)cc(OC)n1")
"4 (70% or more-90% inhibition)"
>>> observed("COc1cc(Cl)nc(C(=O)NS(=O)(=O)c2ccccc2OC(F)(F)F)c1")
"4 (70% or more-90% inhibition)"
>>> observed("COc1cc(Cl)nc(C(=O)NS(=O)(=O)c2ccccc2Cl)c1")
"2 (30% or more-50% inhibition)"
>>> observed("O=C(NS(=O)(=O)c1ccccc1OC(F)(F)F)c1cccc(Cl)n1")
"5 (90% or more inhibition)"
>>> observed("COC(=O)c1ccccc1S(=O)(=O)NC(=O)c1ccc(OC)c(Br)n1")
"5 (90% or more inhibition)"
>>> observed("COc1cc(Cl)nc(C(=O)NS(=O)(=O)c2ccccc2S(=O)(=O)N(C)OC)c1")
"5 (90% or more inhibition)"
>>> observed("COc1ccc(C(=O)NS(=O)(=O)c2ccccc2S(=O)(=O)N(C)C)nc1C")
"5 (90% or more inhibition)"
>>> observed("COc1ccc(C(=O)NS(=O)(=O)c2ccccc2S(=O)(=O)N(C)C)nc1[N+](=O)[O-]")
"5 (90% or more inhibition)"
>>> observed("COc1ccc(C(=O)NS(=O)(=O)c2ccccc2OC(F)(F)F)nc1Br")
"5 (90% or more inhibition)"
>>> observed("COc1cc(Cl)nc(C(=O)NS(=O)(=O)c2cccc(Cl)c2Cl)c1")
"2 (30% or more-50% inhibition)"
>>> observed("COc1ccc(C(=O)NS(=O)(=O)c2c(Cl)cccc2Cl)nc1")
"4 (70% or more-90% inhibition)"
>>> observed("COc1ccc(C(=O)NS(=O)(=O)c2ccccc2OC(F)(F)F)nc1")
"5 (90% or more inhibition)"
>>> observed("COc1ccc(C(=O)NS(=O)(=O)c2ccccc2S(=O)(=O)N(C)C)nc1OC")
"5 (90% or more inhibition)"
>>> observed("Cc1nc(C(=O)NS(=O)(=O)c2ccccc2S(=O)(=O)N(C)C)ccc1[N+](=O)[O-]")
"3 (50% or more-70% inhibition)"
>>> observed("COc1cc(Cl)nc(C(=O)NS(=O)(=O)c2c(F)cccc2F)c1")
"5 (90% or more inhibition)"
>>> observed("COC(=O)c1ccccc1S(=O)(=O)NC(=O)c1ccc(OC)c(Cl)n1")
"5 (90% or more inhibition)"
>>> observed("COc1cc(Cl)nc(C(=O)NS(=O)(=O)c2ccccc2S(=O)(=O)N(C)C)c1")
"5 (90% or more inhibition)"
>>> observed("O=C(NS(=O)(=O)c1c(Cl)cccc1Cl)c1cc(Cl)cc(Cl)n1")
"5 (90% or more inhibition)"
>>> observed("COc1ccc(C(=O)NS(=O)(=O)c2c(Cl)cccc2Cl)nc1Cl")
"5 (90% or more inhibition)"
>>> observed("O=C(NS(=O)(=O)c1c(Cl)cccc1Cl)c1cccc(Cl)n1")
"5 (90% or more inhibition)"

Provenance of the data: patent US6610853B1
